Below, each of the compounds is paired with its reported pIC50 value.
# Test system: CEM cells HIV-1 protection, formazan growth assay
# METHOD_NOTES: NCI AIDS Antiviral Assay
# CONDITION_CONTEXT: measured here: growth of uninfected CEM cells
pIC50: −log10 of the molar value.

{"columns": ["COMPOUND", "pIC50"],
 "data": [
  ["Cc1ccc(NC(=O)c2[nH]c(=S)nc(N)c2-c2ccccc2C)cc1C", "< 3.16"],
  ["N#Cc1ccc(Nc2nc3nc[nH]c3c(=O)[nH]2)cc1", "< 3.70"],
  ["Cc1ccc(N=Nc2c(-c3ccccc3)nn(C(=O)CC(=O)Nc3ccc(Cl)cc3)c2-c2ccccc2)cc1", "< 5.01"],
  ["O=C1NC(=O)C(=Cc2ccc(F)cc2)C(=O)N1", "< 3.95"],
  ["CS(=O)(=O)SCCCS(=O)(=O)O", "< 3.04"]
]}

Now turn to the next compound.
pIC50 for CCOC(=O)N1CCC2(CC1)C[C@](C)(C(C)=O)C(C)O2 (stereo partly specified) is < 3.70

----------
# Test system: CEM cells HIV-1 protection, formazan growth assay
# METHOD_NOTES: NCI AIDS Antiviral Assay
pEC50: −log10 of the molar value.
EXPERIMENTAL_ENDPOINT: pEC50

{"columns": ["MOLECULE", "pEC50"],
 "data": [
  ["CCCc1cc2c(=O)c(C(=O)OC)c[nH]c2cc1N(CC)CC", "< 3.70"]
]}

Value sought: pEC50, system CEM cells HIV-1 protection, formazan growth assay, item "CC(=Nc1ccccc1C(=O)O)c1c(O)ccc2c(C)cc(=O)oc12" . Result: < 3.97

Value sought: pEC50, system CEM cells HIV-1 protection, formazan growth assay, item CCOC(=O)C1(C)CCc2sc(N)c(C#N)c21 (stereo unspecified) . Result: 4.08

Value sought: pEC50, system CEM cells HIV-1 protection, formazan growth assay, item O=C1OC2C=CC1C1C(=O)OC(=O)C21 (stereo unspecified) . Result: < 3.70

Value sought: pEC50, system CEM cells HIV-1 protection, formazan growth assay, item COC(=O)C(CC(=O)Nc1ccc(C)cc1)C(=O)C(=O)Nc1ccccc1C(C)C (stereo unspecified) . Result: < 3.64

Value sought: pEC50, system CEM cells HIV-1 protection, formazan growth assay, item CN1C(=O)C(c2c[nH]c3ccccc23)N(C)C(=O)C1c1c[nH]c2ccccc12 (stereo unspecified) . Result: < 3.70

----------
Below, each of the molecules is paired with its reported pIC50 value.
# Tested on: CEM cells HIV-1 protection, formazan growth assay
# METHOD_NOTES: NCI AIDS Antiviral Assay
# CONDITION_CONTEXT: measured here: growth of uninfected CEM cells
pIC50: −log10 of the molar value.

{"columns": ["MOLECULE", "pIC50"],
 "data": [
  ["C/C=C(/C)C(=O)O[C@H](C[C@@H](C)[C@H]1CC(c2ccoc2)OC1=O)[C@@]1(C)C(=O)CCC2O[C@]21C (some centres undefined)", "< 3.70"],
  ["CC(OC(=O)C(CC(=O)OC(C)(C)C)NC(=O)OC(C)(C)C)C(=O)OCc1ccccc1 (centres undefined)", "< 3.70"],
  ["CC(C)(CCl)NC(=O)c1cccc(C(=O)NC(C)(C)CCl)n1", "< 4.54"],
  ["CCCCCCCCCCCCOCC1(COCCCCCCCCCCCC)COC(c2ccc(N)cc2)OC1", "< 3.70"]
]}

pIC50 for "CCOC(=O)/C=C(/C)Nc1nc2c(c(C(=O)OC)c1C#N)CCCC2" is < 3.70

pIC50 for "Nc1nc2n[nH]nc2c(=O)[nH]1" is 6.52

----------
# Test system: CEM cells HIV-1 protection, formazan growth assay
# METHOD_NOTES: NCI AIDS Antiviral Assay;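 active means compounds giving half or more protection of infected cells from virus-caused growth loss, again on retest; inactive means the rest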
Thanks in advance; please answer with one of these: t = active, f = inactive

Exercise: Assay result, entry COC(=O)C1C(O)C(C)C(O)C(C)C=C(C)C2=C3C(=C(C)C(=O)c4c(O)c(c(C)c(OC(C)=O)c43)NC(=O)C(C)=C/C=C\C(C)C(O)C(C)C1O)OCO2 (centres undefined) — outcome?
Key: f

Exercise: Assay result, entry "CCN(CC)CCC(=O)c1ccc(Cl)cc1" — outcome?
Key: f

Exercise: Assay result, entry "Cn1c(=O)c2[nH]c(SSc3nc4c([nH]3)c(=O)n(C)c(=O)n4C)nc2n(C)c1=O" — outcome?
Key: t

Exercise: Assay result, entry "COc1ccc(N2C(=O)c3c(c4[nH]c5ccccc5c4c4ccc(C(C)(C)C)cc34)C2=O)cc1" — outcome?
Key: f

Exercise: Assay result, entry "C=CCN1C(=O)CS/C1=N\NC(=O)c1c(C)nc2sccn12" — outcome?
Key: f

Exercise: Assay result, entry "CC1=NNB(O)c2sccc21" — outcome?
Key: f

Exercise: Assay result, entry C/C(CC(O)(/C=N/O)c1ccccc1)=N/O (centres undefined) — outcome?
Key: f

Exercise: Assay result, entry "CN1C/C(=C\c2ccc(N(C)C)cc2)C(=O)/C(=C/c2ccc(N(C)C)cc2)C1" — outcome?
Key: f

----------
Below, each of the compounds is paired with its reported IC50 value.
# Tested on: CEM cells HIV-1 protection, formazan growth assay
# METHOD_NOTES: NCI AIDS Antiviral Assay
# CONDITION_CONTEXT: measured here: growth of uninfected CEM cells

Worked examples, 2 compounds total:
{"columns": ["COMPOUND", "IC50"],
 "data": [
  ["O=C(O)c1ccc(CSc2ccccc2C(=O)O)cc1", "> 126 µM"],
  ["CC(C)OP(=O)(CP(=O)(OC(C)C)OC(C)C)OC(C)C.[CH3][Sn]([Br])([Br])[Br]", "> 347 µM"]
]}

IC50 for CC1(C)OCC(C2OC3OC(C)(C)OC3C2c2ccccc2)O1 (stereo not drawn) is > 200 µM

----------
# Test system: CEM cells HIV-1 protection, formazan growth assay
# METHOD_NOTES: NCI AIDS Antiviral Assay
# CONDITION_CONTEXT: measured here: growth of uninfected CEM cells
pIC50: −log10 of the molar value.
Below, each of the molecules is paired with its reported pIC50 value.

Worked examples, 7 molecules total:
{"columns": ["MOLECULE", "pIC50"],
 "data": [
  ["O=c1cc(NCCCCCO)[nH]c(=O)[nH]1", "< 3.70"],
  ["CC/C(CC(=O)CCC(=O)Nc1ccccc1[N+](=O)[O-])=N/NC(=O)C[n+]1ccccc1", "< 4.59"],
  ["Cc1nc2ccccc2c(=O)n1NC(=S)NC1CCCCC1", "< 5.34"],
  ["O=[N+]([O-])c1cc(S(=O)(=O)c2ccc(O)c([N+](=O)[O-])c2)ccc1O", "< 4.00"],
  ["FC(F)(F)c1ccc2nc(NCc3ccccc3)c(-c3ccccc3)nc2c1", "< 4.72"],
  ["CC(N)CNCCCNCCNCCCNCO (stereo not drawn)", "< 4.00"],
  ["CC1(C)C2C=C(CCN3CCOCC3)CC1C2 (stereo not drawn)", "< 3.70"]
]}

Now turn to the next molecule.
pIC50 for COc1cc2c(cc1OC)C1(c3ccccc3)ON=C(c3ccccc3)N1CS2 (stereo not drawn) is < 5.03

----------
# System: CEM cells HIV-1 protection, formazan growth assay
# METHOD_NOTES: NCI AIDS Antiviral Assay
# CONDITION_CONTEXT: measured here: growth of uninfected CEM cells
EXPERIMENTAL_ENDPOINT: IC50

Worked examples, 5 molecules total:
{"columns": ["MOLECULE", "EXPERIMENTAL_ENDPOINT", "OBSERVED"],
 "data": [
  ["O=C1CSC(c2ccc(Cl)cc2)N1N1C(=O)CSC1c1ccc(Cl)cc1 (stereo not drawn)", "IC50", "> 151 µM"],
  ["COC(=O)c1ncn(C(C(=O)OC)C(=O)OC)c1O", "IC50", "> 200 µM"],
  ["CC(=O)c1cccc(NC(=O)C(=O)C(C(=O)NN)c2ccccc2)c1 (stereo not drawn)", "IC50", "> 55 µM"],
  ["COC(=O)c1cc(C(=CCCCC(=O)O)c2cc(Cl)c(OC)c(C(=O)OC)c2)cc(Cl)c1OC", "IC50", "> 200 µM"],
  ["COc1cc(C2c3cc4c(c(O)c3C[C@H]3COC(=O)[C@@H]23)OCO4)cc(OC)c1O (stereo partly drawn)", "IC50", "0.0631 µM"]
]}

Value sought: IC50, system CEM cells HIV-1 protection, formazan growth assay, item N#Cc1c(Br)n(C2OC(CO)C(O)C2O)c2ncn3ccnc3c12 (stereo not drawn) . Result: > 200 µM

Value sought: IC50, system CEM cells HIV-1 protection, formazan growth assay, item "CN(/N=C/C=N/N(C)C1=NCCCCN1)C1=NCCCCN1" . Result: > 200 µM
